- Test system: U-251
- Method Summary: NCI tumour cell line growth inhibition, 48 h
Calls of active or inactive are those of the source. Rule as the data show it: active = GI50 up to about 1.1 µM and inactive = higher.
Readout Label: GI50

Known GI50 results, listed for orientation:
{"columns": ["Compound", "Experimental Value"],
 "data": [
  ["C[P+](c1ccccc1)(c1ccc(Cl)cc1)c1ccc(Cl)cc1", "16.3 µM (inactive)"],
  ["NCC(=O)NC(CCCC(NC(=O)CN)P(=O)(O)O)P(=O)(O)O (stereo not given)", "> 100 µM (inactive)"],
  ["CC(O)C1(CNc2cc(Cl)nc(N)n2)CC(CCc2ccccc2)C1 (stereo not given)", "14.5 µM (inactive)"],
  ["COc1c2nc(CCl)[nH]c(=O)c2c(OC)c2nc(CCl)[nH]c(=O)c12", "> 100 µM (inactive)"]
]}

Continue with the compound presented below.
QUERY: Can you look up the measured GI50 of CCCCc1c(C(=O)OC(C)(C)C)cc(C#Cc2cc(C(=O)OC(C)(C)C)c(CCCC)c(C(=O)OC(C)(C)C)c2)cc1C(=O)OC(C)(C)C for me?
RESULT: > 100 µM (inactive)

###

- Test system: U-251
- Method Summary: NCI tumour cell line growth inhibition, 48 h
Activity calls are given as the source filed them. No stated cut-off is given here; in the data, active = GI50 up to about 1.1 µM and inactive = higher.
Readout Label: GI50

{"columns": ["Compound", "GI50"],
 "data": [
  ["O=C1NC(N2CCOCC2)=N/C1=C\\c1ccc(O)cc1", "> 100 µM (inactive)"],
  ["OC(CCN1CCN(CCOC(c2ccc(F)cc2)c2ccc(F)cc2)CC1)c1ccc(Br)cc1 (stereo not given)", "4.11 µM (inactive)"],
  ["Nc1n[n+]([O-])c2ccccc2[n+]1[O-]", "> 100 µM (inactive)"],
  ["Cc1nc(-c2nc(C)c(C(=O)/C=C/c3ccc(N(C)C)cc3)s2)sc1C(=O)/C=C/c1ccc(N(C)C)cc1", "> 100 µM (inactive)"],
  ["N#C/N=C(/NCCc1c[nH]c2ccccc12)Oc1ccccc1", "> 100 µM (inactive)"]
]}

QUERY: State its GI50 on U-251: COc1cc(Cn2c(=S)ss/c2=N\C(=S)N(C)C)cc(OC)c1OC
RESULT: 4.61 µM (inactive)

QUERY: State its GI50 on U-251: COC(=O)/C=C(C)/C=C\COC1CCCCO1 (stereo not given)
RESULT: > 100 µM (inactive)

QUERY: State its GI50 on U-251: COc1cc2c(cc1OC)C(Cl)C(c1ccc(Cl)c(Cl)c1)=C2Cl (stereo not given)
RESULT: 4.71 µM (inactive)

QUERY: State its GI50 on U-251: Cn1c(=O)c2c(nc(Nc3ccc(Cl)cc3)n3c(=O)n(-c4ccccc4)c(=O)n23)n(C)c1=O
RESULT: > 100 µM (inactive)

QUERY: State its GI50 on U-251: N#Cc1c(-c2ccco2)cc(-c2ccccc2)nc1O
RESULT: > 100 µM (inactive)

###

- System: MOLT-4
- Method Summary: NCI tumour cell line growth inhibition, 48 h
The source made the active and inactive calls. Rule as the data show it: active = GI50 up to about 1.1 µM and inactive = higher.
Assign a class; possible classes are active, inactive

// below: answered molecules
{"columns": ["Molecule", "Label"],
 "data": [
  ["CCOC(=O)/C(=C\\c1ccccc1)C(=O)O", "inactive"],
  ["CCc1cccc(C(C)C)c1NC(=O)C(=O)C(CC(=O)Nc1ccc(Cl)c(Cl)c1)C(=O)OC (stereo not drawn)", "inactive"],
  ["CC(C)c1cccc(C(C)C)c1NC(=S)NN=C1C=C(C(C)(C)C)C(=O)C(C(C)(C)C)=C1", "inactive"],
  ["N#CC(/C(=N/NC(=O)C(=O)NN)C(=O)NC12CC3CC(CC(C3)C1)C2)c1ccccc1 (stereo not drawn)", "inactive"],
  ["N#Cc1c(=O)c2cc([N+](=O)[O-])ccc2n2c1[nH]c1ccccc12", "inactive"]
]}

QUERY: What classification did O=S(=O)([C-]([I+]c1ccccc1)S(=O)(=O)C(F)(F)C(F)(F)C(F)(F)C(F)(F)F)C(F)(F)C(F)(F)C(F)(F)C(F)(F)F end up with in this test?
RESULT: inactive

QUERY: What classification did COc1cc(-c2oc(/C=N/c3ccccc3)c([N+](=O)[O-])c2-c2ccc(O)c(OC)c2)ccc1O end up with in this test?
RESULT: inactive

QUERY: What classification did O=C(CC(O)(C(F)(F)F)C(F)(F)F)C(CCCl)C(O)(C(F)(F)F)C(F)(F)F (stereo not drawn) end up with in this test?
RESULT: inactive

###

- System: SF-268
- Method Summary: NCI tumour cell line growth inhibition, 48 h
Calls of active or inactive are those of the source. No stated cut-off is given here; in the data, active = GI50 up to about 1.1 µM and inactive = higher.
Assign a class; possible classes are T = active, F = inactive

// below: answered molecules
{"columns": ["Molecule", "Target Or Test System", "Label"],
 "data": [
  ["CC(N/N=C(\\S)N1CCCCCC1)c1cccnn1 (centres undefined)", "SF-268", "T"],
  ["CCCc1c2c([nH]c(=O)c1C)C(=O)c1[nH]c(=O)c(C)c(CCC)c1C2=O", "SF-268", "F"],
  ["COCC1OC(Sc2ccccc2)C(O)C(OC)C1OC (centres undefined)", "SF-268", "F"]
]}

QUERY: What classification did N#Cc1c(-c2ccco2)cc(-c2ccccc2)nc1O end up with in this test?
RESULT: F

QUERY: What classification did O=c1[nH]c(Br)nc2c(N3CCCCC3)c[nH]c12 end up with in this test?
RESULT: F

QUERY: What classification did CC1(C)[C@@H]2CC[C@@]1(C)CN(CCC[N+](C)(C)C)C2 end up with in this test?
RESULT: F

QUERY: What classification did CCOc1ccccc1NC(=O)/C=C1\NC(=O)CS1 end up with in this test?
RESULT: F

QUERY: What classification did CC(C)OP(=O)(NC(=S)c1ccccc1)OC(C)C end up with in this test?
RESULT: F

QUERY: What classification did CC1(C)C2C=C(CCN3CCOCC3)CC1C2 (centres undefined) end up with in this test?
RESULT: F

###

- Test system: SNB-75
- Method Summary: NCI tumour cell line growth inhibition, 48 h
Active and inactive are the calls of the source. No stated cut-off is given here; in the data, active = GI50 up to about 1.1 µM and inactive = higher.
Recorded GI50 by entry

QUERY: Can you look up the measured GI50 of Sc1nnc(CCCCCCCCc2nnc(S)o2)o1 for me?
RESULT: > 100 µM (inactive)

QUERY: Can you look up the measured GI50 of O=C1C=CC2(C=C1)C[C@H](NC(=O)C(F)(F)F)C(=O)O2 for me?
RESULT: 69 µM (inactive)

QUERY: Can you look up the measured GI50 of COc1c2nc(CCl)[nH]c(=O)c2c(OC)c2nc(CCl)[nH]c(=O)c12 for me?
RESULT: > 100 µM (inactive)

QUERY: Can you look up the measured GI50 of O=C(CC(O)(C(F)(F)F)C(F)(F)F)C(CCCl)C(O)(C(F)(F)F)C(F)(F)F (centres undefined) for me?
RESULT: 24.9 µM (inactive)

QUERY: Can you look up the measured GI50 of Cc1cc(C)n(-c2nc(C)c(CCO)c(=O)[nH]2)n1 for me?
RESULT: 97.5 µM (inactive)

###

- System: HT-29
- Method Summary: NCI tumour cell line growth inhibition, 48 h
Calls of active or inactive are those of the source. Cut-off read from the data, not from the text of the source: active = GI50 up to about 1.1 µM and inactive = higher.
Recorded GI50 by entry

Known GI50 results, listed for orientation:
{"columns": ["Compound", "GI50"],
 "data": [
  ["CC(O)C1(CNc2cc(Cl)nc(N)n2)CC(CCc2ccccc2)C1 (configuration not stated)", "13 µM (inactive)"],
  ["O=c1[nH]c(Br)nc2c(N3CCCCC3)c[nH]c12", "> 100 µM (inactive)"],
  ["Cc1cn2c(C)csc2c1P(=O)(OC(C)C)OC(C)C", "> 100 µM (inactive)"]
]}

QUERY: Can you look up the measured GI50 of N=C(N)NNC(=O)CCCCCCCC(=O)NNC(=N)N for me?
RESULT: > 100 µM (inactive)

QUERY: Can you look up the measured GI50 of Cc1cc2c(cc1Br)C1(C)CCC(C)C1(C)O2 (configuration not stated) for me?
RESULT: 30.6 µM (inactive)

QUERY: Can you look up the measured GI50 of CCCCCCC(=O)C/C(CCC(=O)N(Cc1ccccc1)Cc1ccccc1)=N\Nc1ccc([N+](=O)[O-])cc1[N+](=O)[O-] for me?
RESULT: 89.9 µM (inactive)

QUERY: Can you look up the measured GI50 of CCC(=O)NI1OC(=O)c2ccccc21 for me?
RESULT: > 100 µM (inactive)

QUERY: Can you look up the measured GI50 of O=c1oc2ccccc2cc1-c1cc2ccccn2c1 for me?
RESULT: > 100 µM (inactive)

QUERY: Can you look up the measured GI50 of CCNC(=S)N/N=C(\C)c1cccc(C)n1 for me?
RESULT: 3.09 µM (inactive)
